- system name: T1, human GIP receptor (human, UniProt P48546 22-466)
- T1 sequence (looked up): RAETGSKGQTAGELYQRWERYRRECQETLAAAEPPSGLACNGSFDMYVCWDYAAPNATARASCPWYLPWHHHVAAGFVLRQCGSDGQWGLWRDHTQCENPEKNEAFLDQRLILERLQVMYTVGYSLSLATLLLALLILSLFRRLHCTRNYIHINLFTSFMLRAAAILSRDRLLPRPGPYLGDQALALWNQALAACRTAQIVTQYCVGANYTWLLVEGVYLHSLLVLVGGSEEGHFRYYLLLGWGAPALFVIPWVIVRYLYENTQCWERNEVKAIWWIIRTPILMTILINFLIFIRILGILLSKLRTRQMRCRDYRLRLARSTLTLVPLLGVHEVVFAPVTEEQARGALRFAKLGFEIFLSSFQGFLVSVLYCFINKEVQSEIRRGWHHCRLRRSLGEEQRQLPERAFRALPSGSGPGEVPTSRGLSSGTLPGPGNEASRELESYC
- assay method text: cell-based or functional assay
Numbered stars: 1 amine (or outer) side, 2 acyl side, 3 side chain; on linkers, the order of the positions; unused ones are H or OH. Square brackets hold non-standard residues; d marks the D form. Side chains are listed from the residue outwards. * marks the point of attachment. C18 diacid = O=C(O)CCCCCCCCCCCCCCCCC(=O)*; γGlu = O=C(O)[C@H](CCC(=O)[*:2])N[*:1]; Chem. 28 = not defined here; Aib = CC(C)(N)C(=O)O
Parameter hGIPR Potency, no HSA, EC50 [pM]: see the listing below.

[
  {
    "binder": "Compound 39 (reading uncertain) peptide: Y[Aib]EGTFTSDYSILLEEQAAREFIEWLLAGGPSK(Chem. 28)GGQEPGQEPGEASHLSTAQTQRLSAELHELATLPRTETGSGSP-NH2",
    "hGIPR Potency, no HSA, EC50 [pM]": "1.62 pM"
  },
  {
    "binder": "Compound 49 (reading uncertain) peptide: Y[Aib]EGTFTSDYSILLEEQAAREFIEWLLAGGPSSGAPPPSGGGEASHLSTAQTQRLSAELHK(Chem. 28)LATLPRTETGSGSP-NH2",
    "hGIPR Potency, no HSA, EC50 [pM]": "4.36 pM"
  },
  {
    "binder": "Compound 112 (peptide) peptide: H[Aib]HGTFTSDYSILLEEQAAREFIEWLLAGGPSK([γGlu-C18 diacid])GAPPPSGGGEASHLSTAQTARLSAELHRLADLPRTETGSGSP-NH2",
    "hGIPR Potency, no HSA, EC50 [pM]": "2.42 pM"
  },
  {
    "binder": "Compound 40 (reading uncertain; also: VARIANT 50 Aib (position 50 is T), mods: Aib at 2) peptide: Y[Aib]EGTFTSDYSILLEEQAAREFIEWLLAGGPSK(Chem. 28)GGGGEGGGEGEASHLSTAQTQRLSAELHELATLPRTETGSGSP-NH2",
    "hGIPR Potency, no HSA, EC50 [pM]": "1.63 pM"
  }
]
